The measured values listed here are drawn from PubChem BioAssay AID651702.

inhibition overview
# EXPERIMENT: LAMP-1 surface exposure blockers, TALL-104 cells – cell-based, flow cytometry, MLPCN library, primary screen (AID 651702)
# CONDITIONS: TALL-104 LAMP-1 surface exposure, at 10 µM, hits give high values, cells stimulated with thapsigargin and PMA
In all, about 360,000 compounds went through this assay and about 2,400 (0.67%) were called active. The entries come from a sample that favours actives as a whole.
MEASURE: inhibition (%)

- CC(=O)N1C[C@@H](CO)[C@@H](N(C)C(=O)c2ccco2)C[C@H]1c1ccccc1: -2
- COc1ccc(S(=O)(=O)N(C)C)cc1NC(=O)COC(=O)c1n[nH]c2ccccc12: -22.7
- O=C(Cc1coc2ccc3ccccc3c12)NCc1cccs1: -2.5
- Cc1ccccc1CN1C[C@@H]2C[C@@H](c3cn(C)nc3-c3ccccc3)N3CCC[C@@]23C1=O: 82.4
- Cc1ccc(C)c(S(=O)(=O)N2CCN(c3ncnc4sccc34)CC2)c1: -10.6
